biological target: PIM1 transgenic cells (Ba/F3) (Homo sapiens); test: Proliferation inhibitory effect on PIM1 transgenic cells; assay type: cell-based, mouse; settings: proliferation inhibition, 72 hours, Cell Counting Kit-8, read-out: PIM1 IC50
Sequence (P11309 whole entry, change not shown): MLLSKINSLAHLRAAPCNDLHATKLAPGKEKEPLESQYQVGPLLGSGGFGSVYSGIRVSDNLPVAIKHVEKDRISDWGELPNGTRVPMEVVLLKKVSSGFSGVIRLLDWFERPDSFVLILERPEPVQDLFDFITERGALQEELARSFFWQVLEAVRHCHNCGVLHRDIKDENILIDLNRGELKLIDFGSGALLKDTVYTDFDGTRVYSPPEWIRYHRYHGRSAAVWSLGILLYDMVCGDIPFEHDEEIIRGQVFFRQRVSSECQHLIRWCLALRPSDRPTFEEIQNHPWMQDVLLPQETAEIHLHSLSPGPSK
Counter-ions that a name gives are not always drawn.
As shown below, each of these compounds has a reported GI50 value.

- COMPOUND: "C[C@H](Nc1cc(-c2n[nH]c(=O)o2)ccc1C(F)(F)F)C12C3C4C1C1C2C3C41N (some centres unmarked) [Example 186, hydrochloride]"
  MEASURE_UNIT: "nM"
  GI50: 2300
- COMPOUND: "NCCC1CCCN(c2cc(-c3n[nH]c(=O)o3)ccc2C(F)(F)F)C1 (centres unmarked) [Example 11, hydrochloride]"
  MEASURE_UNIT: "nM"
  GI50: 330
- COMPOUND: "N[C@H]1CC[C@H](CN2CCCc3ccc(-c4n[nH]c(=O)o4)cc32)CC1 [Example 244]"
  MEASURE_UNIT: "nM"
  GI50: 140
- COMPOUND: "O=c1[nH]nc(-c2ccc(C(F)(F)F)c(NCC3C4CCC3CNC4)c2)o1 (centres unmarked) [Example 133, hydrochloride]"
  MEASURE_UNIT: "nM"
  GI50: 200
- COMPOUND: "N[C@H]1CO[C@H](CCc2cc(-c3n[nH]c(=O)o3)ccc2C(F)(F)F)OC1 [Example 28, hydrochloride]"
  MEASURE_UNIT: "nM"
  GI50: 3500
- COMPOUND: "Cc1c(Cl)cc(-c2n[nH]c(=O)o2)cc1N[C@@H](C)C1CCNCC1 [Example 98, dihydrochloride]"
  MEASURE_UNIT: "nM"
  GI50: 79
- COMPOUND: "C[C@H](Nc1cc(-c2n[nH]c(=O)o2)ccc1C(F)(F)F)[C@H]1C[C@@H](NCC2CC2)C1 [Example 196, hydrochloride]"
  MEASURE_UNIT: "nM"
  GI50: 250
- COMPOUND: "C[C@@H]1CNCC[C@@H]1[C@H](C)Nc1cc(-c2n[nH]c(=O)o2)cc(F)c1C(F)(F)F [Example 210]"
  MEASURE_UNIT: "nM"
  GI50: 15
- COMPOUND: "N[C@H]1CC[C@H](CNc2cc(-c3n[nH]c(=O)o3)cc(F)c2Cl)CC1 [Example 86, hydrochloride]"
  MEASURE_UNIT: "nM"
  GI50: 61
- COMPOUND: "N[C@H]1CC[C@H](CNc2cc(-c3n[nH]c(=O)o3)ccc2-c2ccccc2)CC1 [Example 71, hydrochloride]"
  MEASURE_UNIT: "nM"
  GI50: 4200
- COMPOUND: "NCCC1CCN(c2cc(-c3n[nH]c(=O)o3)ccc2C(F)(F)F)CC1 [Example 10, hydrochloride]"
  MEASURE_UNIT: "nM"
  GI50: 630
- COMPOUND: "CN[C@H]1CC[C@H]([C@H](C)Nc2cc(-c3n[nH]c(=O)o3)cc(F)c2C(F)(F)F)CC1 [Example 190, hydrochloride]"
  MEASURE_UNIT: "nM"
  GI50: 41
- COMPOUND: "NC1CC2(C1)CC(Nc1cc(-c3n[nH]c(=O)o3)ccc1C(F)(F)F)C2 (centres unmarked) [Example 43, hydrochloride]"
  MEASURE_UNIT: "nM"
  GI50: 190
- COMPOUND: "O=c1[nH]nc(-c2ccc(C(F)(F)F)c(N[C@H](C3CCNCC3)C(F)(F)F)c2)o1 [Example 146, hydrochloride]"
  MEASURE_UNIT: "nM"
  GI50: 89
- COMPOUND: "CC(Oc1cc(-c2n[nH]c(=O)o2)ccc1Br)[C@H]1CC[C@H](N)CC1 (some centres unmarked) [Example 237]"
  MEASURE_UNIT: "nM"
  GI50: 90
- COMPOUND: "C[C@@H]1CNCC[C@@H]1[C@H](C)Nc1cc(-c2n[nH]c(=O)o2)cc(F)c1Cl [Example 222]"
  MEASURE_UNIT: "nM"
  GI50: 19
- COMPOUND: "CN[C@H]1C[C@@H]([C@H](C)Nc2cc(-c3n[nH]c(=O)o3)cc(F)c2OC(F)(F)F)C1 [Example 208]"
  MEASURE_UNIT: "nM"
  GI50: 130
- COMPOUND: "C[C@@H]1C[C@H]([C@H](C)Nc2cc(-c3n[nH]c(=O)o3)cc(F)c2OC(F)F)CCN1 [Example 216]"
  MEASURE_UNIT: "nM"
  GI50: 45
- COMPOUND: "O=c1[nH]nc(-c2cc(F)c(C(F)(F)F)c(NCC3(F)CCNCC3)c2)o1 [Example 129, hydrochloride]"
  MEASURE_UNIT: "nM"
  GI50: 360
- COMPOUND: "C[C@H](Nc1cc(-c2n[nH]c(=O)o2)cc([N+](=O)[O-])c1Cl)C1CCNCC1 [Example 91, hydrochloride]"
  MEASURE_UNIT: "nM"
  GI50: 210
- COMPOUND: "CC(Oc1cc(-c2n[nH]c(=O)o2)ccc1Br)C1CCNCC1 (centres unmarked) [Example 236]"
  MEASURE_UNIT: "nM"
  GI50: 180
- COMPOUND: "CC1(CNc2cc(-c3n[nH]c(=O)o3)ccc2C(F)(F)F)CCNCC1 [Example 57, hydrochloride]"
  MEASURE_UNIT: "nM"
  GI50: 370
- COMPOUND: "Cc1cc(Cl)c(N[C@@H](C)C2CCNCC2)cc1-c1n[nH]c(=O)o1 [Example 94, hydrochloride]"
  MEASURE_UNIT: "nM"
  GI50: 140
- COMPOUND: "CC1CN(C(C)C2CCC(N)CC2)c2cc(-c3n[nH]c(=O)o3)cc(F)c2O1 (centres unmarked) [Example 252, hydrochloride]"
  MEASURE_UNIT: "nM"
  GI50: 210
- COMPOUND: "C[C@H](Nc1cc(-c2n[nH]c(=O)o2)ccc1C(F)(F)F)C1(C)CCNCC1 [Example 144, hydrochloride]"
  MEASURE_UNIT: "nM"
  GI50: 64
- COMPOUND: "C[C@H](Nc1cc(-c2n[nH]c(=O)o2)cc(Br)c1Cl)C1CCNCC1 [Example 97, dihydrochloride]"
  MEASURE_UNIT: "nM"
  GI50: 55
- COMPOUND: "O=c1[nH]nc(-c2ccc(Br)c(NCC3CCNCC3)c2)o1 [Example 50, hydrochloride]"
  MEASURE_UNIT: "nM"
  GI50: 1800
- COMPOUND: "C[C@H](Nc1cc(-c2n[nH]c(=O)o2)ccc1Br)[C@H]1CC[C@H](N)CC1 [Example 154, hydrochloride]"
  MEASURE_UNIT: "nM"
  GI50: 35
- COMPOUND: "C[C@H](Nc1cc(-c2n[nH]c(=O)o2)ccc1C(F)(F)F)C1CC2(CCNCC2)C1 [Example 142, hydrochloride]"
  MEASURE_UNIT: "nM"
  GI50: 220
